Ref: the supplement of paper PMC9112550

# Test system: Escherichia coli TOP10
# Procedure Details: shrunken log2 fold change of peptide-encoding DNA abundance (4.5 h post-induction vs induction); higher = less antimicrobial activity (less host growth inhibition)
# Condition Parameters: time post-induction: 4.5 h; library: site-saturation at positions 5, 18, 19, 20
Classify by measured shrunken log2 fold change: label 1 if it is equal to or exceeds 0.008, label 0 if it is smaller.

Sequence Chain: RRIRIRPPRLPRPRPRPHHVPRP
Label Class: label 0

Sequence Chain: RRIRKRPPRLPRPRPRPEARPRP
Label Class: label 1

Sequence Chain: RRIRCRPPRLPRPRPRPISCPRP
Label Class: label 0

Sequence Chain: RRIRLRPPRLPRPRPRPKKTPRP
Label Class: label 1

Sequence Chain: RRIRPRPPRLPRPRPRPCYVPRP
Label Class: label 0

// inclusive: shrunken log2 fold change at least 0.008? input: RRIRSRPPRLPRPRPRPERFPRP
label 1

Further, for RRIRKRPPRLPRPRPRPIPCPRP ?
label 1

Further, for RRIRQRPPRLPRPRPRPNAFPRP ?
label 1

Further, for RRIRSRPPRLPRPRPRPEEMPRP ?
label 0

Further, for RRIRQRPPRLPRPRPRPSDCPRP ?
label 0

* * *

# Test system: Escherichia coli TOP10
# Procedure Details: shrunken log2 fold change of peptide-encoding DNA abundance (4.5 h post-induction vs induction); higher = less antimicrobial activity (less host growth inhibition)
# Condition Parameters: time post-induction: 4.5 h; library: site-saturation at positions 5, 18, 19, 20
Measurement Name: shrunken log2 fold change

Completed entries (count: 3):
Sequence Chain: RRIRLRPPRLPRPRPRPRNPPRP
shrunken log2 fold change: -0.0997
--
Sequence Chain: RRIRERPPRLPRPRPRPICFPRP
shrunken log2 fold change: -0.221
--
Sequence Chain: RRIRARPPRLPRPRPRPHDAPRP
shrunken log2 fold change: 0.122

I need shrunken log2 fold change for every entry listed below, if you could help.
1. RRIRWRPPRLPRPRPRPFMCPRP
2. RRIRHRPPRLPRPRPRPKYHPRP

[-0.245, -0.773]

* * *

# System: Escherichia coli TOP10;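 also: peptides expressed intracellularly from a pBAD plasmid library in pooled LB shake-flask culture, induced with 0.3% L-arabinose, DNA abundance read by NGS, three biological replicates, DESeq2 with apeglm shrinkage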
# Procedure Details: shrunken log2 fold change of peptide-encoding DNA abundance (4.5 h post-induction vs induction); higher = less antimicrobial activity (less host growth inhibition)
# Condition Parameters: time post-induction: 4.5 h; library: site-saturation at positions 5, 18, 19, 20
Measurement Name: shrunken log2 fold change
Numbers only.

I need shrunken log2 fold change for every entry listed below, if you could help.
1. RRIRIRPPRLPRPRPRPHYHPRP
2. RRIRNRPPRLPRPRPRPLSMPRP
3. RRIRGRPPRLPRPRPRPRFSPRP

-1.47
-0.012
0.0932

I need shrunken log2 fold change for every entry listed below, if you could help.
1. RRIRLRPPRLPRPRPRPRLTPRP
2. RRIRRRPPRLPRPRPRPAMKPRP
3. RRIRSRPPRLPRPRPRPPQAPRP
4. RRIRRRPPRLPRPRPRPICQPRP
5. RRIRSRPPRLPRPRPRPDHSPRP
6. RRIRWRPPRLPRPRPRPDYCPRP
7. RRIRRRPPRLPRPRPRPCWRPRP
8. RRIRERPPRLPRPRPRPHCVPRP

0.143
0.373
0.768
0.133
-0.096
-0.0321
0.00446
0.038

I need shrunken log2 fold change for every entry listed below, if you could help.
1. RRIRIRPPRLPRPRPRPHSGPRP
2. RRIRGRPPRLPRPRPRPENIPRP
3. RRIRQRPPRLPRPRPRPSNYPRP
4. RRIRIRPPRLPRPRPRPMAEPRP
5. RRIRQRPPRLPRPRPRPSEVPRP

-0.00591
0.204
-0.0943
-0.0152
-0.022

I need shrunken log2 fold change for every entry listed below, if you could help.
1. RRIRLRPPRLPRPRPRPKDGPRP
2. RRIRIRPPRLPRPRPRPKARPRP
3. RRIRCRPPRLPRPRPRPKPNPRP
4. RRIRWRPPRLPRPRPRPPDPPRP
5. RRIRQRPPRLPRPRPRPANLPRP
6. RRIRARPPRLPRPRPRPMNTPRP

1. -0.0687
2. -0.0685
3. 0.572
4. 0.296
5. 0.164
6. 0.0292
